tgt: Aurora 2 (Homo sapiens, UniProt O14965)
Construct: A complete recombinant Aurora 2 enzyme, the N-terminal end of which was labeled with histidine; His tag (N)
Sequence (O14965 whole entry): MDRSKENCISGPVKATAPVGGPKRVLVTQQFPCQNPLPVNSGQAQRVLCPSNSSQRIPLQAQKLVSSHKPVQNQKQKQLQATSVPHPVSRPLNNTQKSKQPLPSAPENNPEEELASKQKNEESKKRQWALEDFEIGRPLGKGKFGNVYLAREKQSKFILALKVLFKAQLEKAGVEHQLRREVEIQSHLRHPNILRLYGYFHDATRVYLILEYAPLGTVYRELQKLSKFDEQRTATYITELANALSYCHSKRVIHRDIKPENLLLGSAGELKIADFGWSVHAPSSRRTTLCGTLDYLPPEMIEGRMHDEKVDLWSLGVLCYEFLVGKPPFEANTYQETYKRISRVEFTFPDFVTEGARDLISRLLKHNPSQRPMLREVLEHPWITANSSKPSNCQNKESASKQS
assay-method-text: Aurora 2 kinase radioactivity scintillation test
pIC50: −log10 of the molar value. Counter-ions that a name gives are not always drawn.
# pIC50 >= 6 gives Satisfied, anything below gives Not satisfied

>  <compound>
CC(C)NCCNc1ccc(S(=O)(=O)Oc2ccc3nc(NC(=O)C4CC4)sc3c2)cc1 [Example 53, hydrochloride]

>  <tgt>
Aurora 2 (Homo sapiens, UniProt O14965)

>  <assigned-label>
Satisfied

$$$$
>  <compound>
CC(C)N(CCNc1ccc(S(=O)(=O)Oc2ccc3nc(NC(=O)C4CCCC4)sc3c2)cc1)C(C)C [Example 45]

>  <tgt>
Aurora 2 (Homo sapiens, UniProt O14965)

>  <assigned-label>
Not satisfied

$$$$
>  <compound>
CC(C)N(CCNc1ccc(S(=O)(=O)Oc2ccc3nc(NC(=O)C4(N)CCCC4)sc3c2)cc1)C(C)C [Example 41]

>  <tgt>
Aurora 2 (Homo sapiens, UniProt O14965)

>  <assigned-label>
Satisfied

$$$$
>  <compound>
O=C(Nc1nc2ccc(OS(=O)(=O)c3cccs3)cc2s1)C1CC1 [Example 33h]

>  <tgt>
Aurora 2 (Homo sapiens, UniProt O14965)

>  <assigned-label>
Satisfied

$$$$
>  <compound>
CC(C)N(CCNc1ccc(S(=O)(=O)Oc2ccc3nc(NC(=O)C4CCC4)sc3c2)cc1)C(C)C [Example 60, hydrochloride]

>  <tgt>
Aurora 2 (Homo sapiens, UniProt O14965)

>  <assigned-label>
Not satisfied

$$$$

Query block: hey, is pIC50 for this one >= 6? CC(C)N(CCNc1ccc(S(=O)(=O)Oc2ccc3nc(NC(=O)C4CC4)sc3c2)cc1)C(C)C [Example 12]
Result block: Satisfied

Query block: hey, is pIC50 for this one >= 6? O=C(Nc1nc2ccc(OS(=O)(=O)c3ccc(NCCCn4ccnc4)cc3)cc2s1)C1CC1 [Example 9]
Result block: Satisfied
